biological target: UniProtKB P61964; assay: Binding affinity to WDR5 expressed in pLysS cells by optimized fluorescent polarization based competitive binding assay
pIC50: −log10 of the molar value.
endpoint-name: pIC50

1. C[C@H](N)C(=O)N[C@@H](CCCN=C(N)N)C(=O)N[C@@H](C)C(N)=O; < 3.52

Moving on to the next compound.
Q) Quickly give me recorded pIC50 for CC(=O)N[C@@H](C)C(=O)N[C@@H](CCCNC(=N)N)C(=O)N(C)[C@@H](C)C(N)=O
A) < 3.52

====

biological target: WD repeat-containing protein 5 (Homo sapiens)
pKi: −log10 of the molar value.
Listed here: items and their measured pKi.

Example entries begin here.
1) CC(=O)N[C@@H](C)C(=O)N[C@@H](CCCNC(=N)N)C(=O)N[C@H](C(=O)N[C@@H](CCCCN)C(=O)N[C@@H](CCC(N)=O)C(=O)N[C@H](C(=O)N[C@@H](C)C(=O)N[C@@H](CCCNC(=N)N)C(=O)N[C@@H](CCCCN)C(=O)N[C@@H](CO)C(N)=O)[C@@H](C)O)[C@@H](C)O; > 9.00
2) CC(=O)N[C@@H](C)C(=O)N[C@@H](CCCNC(=N)N)C(=O)N(C)[C@@H](C)C(N)=O; < 4.30

Moving on to the next compound.
Q) Give pKi for C[C@H](N)C(=O)N[C@@H](CCCN=C(N)N)C(=O)N[C@@H](C)C(N)=O tested on WD repeat-containing protein 5 (Homo sapiens).
A) < 4.30
